- System: Human alphaherpesvirus 2
- protocol text: Inactivation rate against herpes simplex type 2 (HSV-2) was determined
- Assay type: functional
For each record, write down the corresponding K obs / 1.
Give the quantity in M⁻¹ s⁻¹, number only.

// lookup K obs / 1 for Cc1csc2nc([C@H](C)NC(=O)/C=C/c3ccnc4ccccc34)oc(=O)c12
76000

// lookup K obs / 1 for Cc1csc2nc([C@H](C)NC(=O)/C=C/c3c(Cl)cccc3Cl)oc(=O)c12
33000

// lookup K obs / 1 for Cc1csc2nc([C@H](C)NC(=O)/C=C/c3ccccc3)oc(=O)c12
65000

----------
- target entity: Capsid scaffolding protein (Human herpesvirus 2 (strain HG52) (HHV-2) (Human herpes simplex virus2), UniProt P89449)
- Sequence (P89449 1-247 limits assumed): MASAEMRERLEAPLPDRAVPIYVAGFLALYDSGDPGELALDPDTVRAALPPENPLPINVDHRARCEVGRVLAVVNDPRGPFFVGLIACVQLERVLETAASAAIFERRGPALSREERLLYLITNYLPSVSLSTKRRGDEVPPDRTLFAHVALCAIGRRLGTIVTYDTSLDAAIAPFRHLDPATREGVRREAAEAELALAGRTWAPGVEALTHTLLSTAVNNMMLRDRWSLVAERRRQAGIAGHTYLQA
- protocol text: Inhibitory activity against herpes simplex virus type 2 (HSV-2) protease was determined using quenched fluorescence assay
measurement name: pIC50
A value of pIC50 is the negative decimal logarithm of a concentration given in moles per litre.

// lookup pIC50 for Cc1csc2nc([C@H](C)NC(=O)/C=C/c3ccccc3)oc(=O)c12
6.52

// lookup pIC50 for Cc1csc2nc([C@H](C)NC(=O)/C=C/c3ccc(Cl)s3)oc(=O)c12
6.68

// lookup pIC50 for Cc1csc2nc([C@H](C)NC(=O)/C=C/c3ccc([N+](=O)[O-])s3)oc(=O)c12
6.24

// lookup pIC50 for Cc1csc2nc([C@H](C)NC(=O)/C=C/c3ccsc3Br)oc(=O)c12
6.70

// lookup pIC50 for Cc1csc2nc([C@H](C)NC(=O)/C=C/c3ccc(N(C)C)cc3)oc(=O)c12
6.24

// lookup pIC50 for Cc1csc2nc([C@H](C)NC(=O)/C=C/c3cccn3C)oc(=O)c12
6.00

// lookup pIC50 for Cc1csc2nc([C@H](C)NC(=O)/C=C/c3ccsc3)oc(=O)c12
6.48

// lookup pIC50 for Cc1csc2nc([C@H](C)NC(=O)/C=C/c3c(F)cccc3F)oc(=O)c12
6.20

// lookup pIC50 for COc1cccc(OC)c1/C=C/C(=O)N[C@@H](C)c1nc2scc(C)c2c(=O)o1
5.89
